Reference source for all entries: patent US20170152313A1

SUBJECT_OF_TEST: T1, APP-Avi-soluble cynomolgus monkey LOX-1 (61-273) (cynomolgus monkey, biotinylated at the Avi tag when immobilised in the SET assay)
T1 construct: Expressed and purified in the same way as the human protein; also called cynomolgus monkey soluble LOX-1; Cynomolgus Monkey Soluble APP-Avi-LOX-1
PROCEDURE_TEXT: SPR Biacore T200, antibody captured by anti-human IgG, cynomolgus soluble LOX-1 as analyte, 1:1 model
METRIC: koff
Remember to follow the number with its unit.

## Input Reported koff, binder FF3 (antibody, human IgG1, kappa, L234A L235A, V domains shown, Humaneered variant of E2E10, tested as full human IgG; Biotinylated for the neutrophil assay; also called LLG785; LLG785 (FF3)) VH: QVQLVQSGAEVKKPGASVKVSCKASGYTFTDYEVHWVRQAPGQGLEWMGAIHPGSGGAAYVQKFQGRVTMTRDTSISTAYMELSRLRSDDTAVYYCARWLPMDYWGQGTLVTVSS VL: DIQMTQSPSSVSASVGDRVTITCRASQGINNWLVWYQQKPGKAPKLLIYAASSLQSGVPSRFSGSGSGADYTLTISSLQPEDFATYYCQQYLITPYTFGQGTKLEIKR : ____
## Output 1.7e-05 s⁻¹
